From: paper PMC5485725

target-or-system: QueF-like (QueF-L) from Pyrobaculum calidifontis (Pyrobaculum calidifontis)
Sequence (A3MSP1 whole entry): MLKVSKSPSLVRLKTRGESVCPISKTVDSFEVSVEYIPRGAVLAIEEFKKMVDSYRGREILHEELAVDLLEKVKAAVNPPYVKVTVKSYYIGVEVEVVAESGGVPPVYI

| compound | Kd [µM] |
| --- | --- |
| N#Cc1c[nH]c2nc(N)[nH]c(=O)c12 [preQ0] | 8 |
